molecular target: Hexokinase HKDC1 (Homo sapiens) (UniProt Q2TB90); assay: compounds raising human HKDC1 activity – biochemical, single concentration, confirmation (AID 504708); settings: recombinant HKDC1, G6PDH/diaphorase resazurin fluorescence; at 20 µM; hits give low values
Sequence (Q2TB90 whole entry, looked up): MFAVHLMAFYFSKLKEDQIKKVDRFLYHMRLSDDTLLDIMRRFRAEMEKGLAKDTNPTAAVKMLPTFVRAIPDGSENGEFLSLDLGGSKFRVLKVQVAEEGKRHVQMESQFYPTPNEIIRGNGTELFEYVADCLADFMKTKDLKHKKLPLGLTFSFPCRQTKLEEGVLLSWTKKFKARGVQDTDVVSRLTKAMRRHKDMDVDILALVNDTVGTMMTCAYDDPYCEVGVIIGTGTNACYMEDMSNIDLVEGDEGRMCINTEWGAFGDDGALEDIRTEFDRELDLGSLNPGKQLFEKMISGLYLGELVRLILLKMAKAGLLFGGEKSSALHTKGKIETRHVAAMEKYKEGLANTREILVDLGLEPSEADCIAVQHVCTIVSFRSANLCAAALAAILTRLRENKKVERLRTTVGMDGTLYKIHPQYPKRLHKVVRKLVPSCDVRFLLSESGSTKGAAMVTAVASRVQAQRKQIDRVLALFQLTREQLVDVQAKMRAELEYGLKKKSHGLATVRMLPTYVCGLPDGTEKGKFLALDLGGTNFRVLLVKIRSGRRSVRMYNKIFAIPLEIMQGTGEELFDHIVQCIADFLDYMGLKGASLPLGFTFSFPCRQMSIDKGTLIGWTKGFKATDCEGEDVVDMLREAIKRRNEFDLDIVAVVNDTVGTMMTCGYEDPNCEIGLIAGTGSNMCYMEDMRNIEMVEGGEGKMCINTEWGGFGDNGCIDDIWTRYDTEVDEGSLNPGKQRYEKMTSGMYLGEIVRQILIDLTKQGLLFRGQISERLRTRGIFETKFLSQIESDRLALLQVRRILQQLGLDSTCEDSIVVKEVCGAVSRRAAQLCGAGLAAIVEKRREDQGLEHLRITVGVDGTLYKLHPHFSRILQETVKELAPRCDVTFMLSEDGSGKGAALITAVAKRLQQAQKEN
The list shows a part of the results.
Catalogue of compounds with associated inhibition
Field format: number, assumed %, no unit text.

Worked set:
COMPOUND: CCOc1cc(/C=N/n2cnnc2)c(Br)cc1O
inhibition (%): 28.4
//
COMPOUND: O=C(NC1=CC(=O)c2ccccc2C1=O)c1ccccc1
inhibition (%): 69.9
//
COMPOUND: O=C(Nc1ccccc1Cl)/C(Cl)=C(\Cl)S(=O)c1ccccc1 (centres undefined)
inhibition (%): -5.2

Q: Recall and state the measured inhibition for CN1c2ccc(C=O)c3c(C=O)ccc(c23)N(C)C1(C)C .
A: 61.2

Just for reference, PubChem BioAssay AID504708 is where these values come from.
